system_under_test: Procathepsin L (Homo sapiens)
Sequence (P07711 whole entry): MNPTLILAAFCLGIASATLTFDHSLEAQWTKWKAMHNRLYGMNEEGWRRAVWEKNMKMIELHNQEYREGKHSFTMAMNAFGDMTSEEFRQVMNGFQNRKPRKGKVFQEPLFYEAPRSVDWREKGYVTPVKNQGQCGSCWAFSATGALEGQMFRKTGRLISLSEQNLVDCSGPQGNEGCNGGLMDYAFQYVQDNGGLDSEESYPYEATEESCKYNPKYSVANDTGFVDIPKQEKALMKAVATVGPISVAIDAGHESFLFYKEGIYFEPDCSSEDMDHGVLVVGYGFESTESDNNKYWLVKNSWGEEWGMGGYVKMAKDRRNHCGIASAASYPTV
pIC50: −log10 of the molar value.
measured_property: pIC50

- CC(C)C[C@H](N[C@@H](c1ccc(-c2ccc(S(C)(=O)=O)cc2)cc1)C(F)(F)F)C(=O)N[C@@H](Cc1ccccc1)C(N)=O: 4.77

* * *

system_under_test: Cathepsin K (Homo sapiens)
IC50 strictly less than 10 nM = Fulfilled. Otherwise Not fulfilled.

* CC(C)C[C@H](N[C@@H](c1ccc(-c2ccc(S(C)(=O)=O)cc2)cc1)C(F)(F)F)C(=O)N[C@@H](CCc1ccccc1)C(N)=O | Not fulfilled
* CC(C)C[C@H](N[C@@H](c1ccc(-c2ccc(S(C)(=O)=O)cc2)cc1)C(F)(F)F)C(=O)N[C@H](Cc1ccccc1)C(N)=O | Not fulfilled
* CC(C)C[C@H](N[C@@H](c1ccc(-c2ccc(S(C)(=O)=O)cc2)cc1)C(F)(F)F)C(=O)NCC#N | Fulfilled
* CSCC[C@H](NC(=O)[C@H](CC(C)C)N[C@@H](c1ccc(-c2ccc(S(C)(=O)=O)cc2)cc1)C(F)(F)F)C(N)=O | Not fulfilled
* CSCC[C@H](NC(=O)[C@H](CC(C)C)N[C@@H](c1ccc(-c2ccc(S(C)(=O)=O)cc2)cc1)C(F)(F)F)C(=O)O | Not fulfilled
* CSCC[C@H](NC(=O)[C@H](CC(C)C)N[C@@H](c1ccc(-c2ccc(S(C)(=O)=O)cc2)cc1)C(F)(F)F)C(=O)N(C)C | Not fulfilled

* * *

system_under_test: Cathepsin S (Homo sapiens, UniProt P25774)
Sequence (P25774 whole entry): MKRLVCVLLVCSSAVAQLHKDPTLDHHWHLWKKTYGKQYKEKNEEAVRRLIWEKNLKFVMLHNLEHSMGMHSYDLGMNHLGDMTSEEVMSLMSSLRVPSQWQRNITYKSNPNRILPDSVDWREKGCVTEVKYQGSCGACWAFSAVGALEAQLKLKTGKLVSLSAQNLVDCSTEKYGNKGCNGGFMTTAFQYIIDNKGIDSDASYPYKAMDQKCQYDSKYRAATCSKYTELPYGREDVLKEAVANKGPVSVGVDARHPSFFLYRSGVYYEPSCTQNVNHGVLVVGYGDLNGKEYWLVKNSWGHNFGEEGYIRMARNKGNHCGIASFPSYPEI
pIC50: −log10 of the molar value.
measured_property: pIC50

- CC(C)C[C@H](N[C@@H](c1ccc(-c2ccc(S(C)(=O)=O)cc2)cc1)C(F)(F)F)C(=O)NCC(N)=O: 4.39
- CSCC[C@H](NC(=O)[C@H](CC(C)C)N[C@@H](c1ccc(-c2ccc(S(C)(=O)=O)cc2)cc1)C(F)(F)F)C(N)=O: 4.11

* * *

system_under_test: Cathepsin K (Homo sapiens, UniProt P43235)
protocol_details: Inhibition of humanized rabbit cathepsin K
pIC50: −log10 of the molar value.
measured_property: pIC50

• CC(C)C[C@H](N[C@@H](c1ccc(-c2ccc(S(C)(=O)=O)cc2)cc1)C(F)(F)F)C(=O)N[C@@H](CCS(C)(=O)=O)C(N)=O = 6.82
• CSC[C@H](NC(=O)[C@H](CC(C)C)N[C@@H](c1ccc(-c2ccc(S(C)(=O)=O)cc2)cc1)C(F)(F)F)C(N)=O = 7.18
• COC(=O)[C@H](CCSC)NC(=O)[C@H](CC(C)C)N[C@@H](c1ccc(-c2ccc(S(C)(=O)=O)cc2)cc1)C(F)(F)F = 7.57
• CSCC[C@H](NC(=O)[C@H](CC(C)C)N[C@@H](c1ccc(-c2ccc(S(C)(=O)=O)cc2)cc1)C(F)(F)F)C(=O)NCC(F)(F)F = 6.56

Cited source for all entries: ChEMBL document CHEMBL1140019
